Catalogue of melting point values

Answered examples (5):
> print(dat)
                                   compound    readoutname             result
1  NC(=O)N1N=C(c2ccc(Cl)cc2Cl)CC1c1ccccc1OCC(=O)NO (stereo not drawn) [2l]  melting point  196.3 to 198.2 °C
2  COc1ccccc1C1=NN(C(N)=O)C(c2ccccc2OCC(=O)NO)C1 (stereo not drawn) [2d]  melting point  198.4 to 200.2 °C
3  NC(=O)N1N=C(c2c(F)cccc2F)CC1c1ccccc1OCC(=O)NO (stereo not drawn) [2j]  melting point  186.2 to 188.2 °C
4  NC(=O)N1N=C(c2c(Cl)cccc2Cl)CC1c1ccccc1OCC(=O)NO (stereo not drawn) [compound 2k]  melting point  200.2 to 202.2 °C
5  NC(=O)N1N=C(c2ccc3ccccc3c2)CC1c1ccccc1OCC(=O)NO (stereo not drawn) [2n]  melting point  166.2 to 168.2 °C

Kindly consider the entry below.
Problem: Quick check: melting point of NC(=O)N1N=C(c2ccc(Br)cc2)CC1c1ccccc1OCC(=O)NO (stereo not drawn) [2c] ?
Solution: 190.2 to 192.2 °C
